# Test system: P. acnes NCTC 737
# protocol: MIC assay
# Type: cell-based, Propionibacterium acnes
# condition summary: Cutibacterium acnes, NCTC737, 72 h, pH 6
reported endpoint: MIC (µg/mL)
Write it as a number; the unit µg/mL goes unstated.

Sample answers from the record:
[
  {
    "compound": "O=C1C(F)=C(F)C(=O)C(F)=C1F [tetrafluoro-p-benzoquinone]",
    "MIC / µg/mL": 125
  },
  {
    "compound": "CC1=C(Br)C(=O)C(C(C)C)=C(Br)C1=O",
    "MIC / µg/mL": 0.98
  },
  {
    "compound": "O=C1C=CC(=O)C(Cl)=C1 [2-chloro-p-benzoquinone]",
    "MIC / µg/mL": 62.5
  },
  {
    "compound": "O=C1C(Cl)=C(Cl)C(=O)C(Cl)=C1Cl [tetrachloro-p-benzoquinone]",
    "MIC / µg/mL": 31.2
  },
  {
    "compound": "CC1=CC(=O)C=CC1=O [2-methyl-p-benzoquinone]",
    "MIC / µg/mL": 15.6
  }
]

Measured MIC of Cc1cc(O)c(C)c(O)c1 [2,5-dimethylresorcinol] : 3.9

COC1=CC(=O)C=C(OC)C1=O [2,6-dimethoxy-p-benzoquinone] yielded MIC of 15.6
